Tested Target: PfHT (Plasmodium falciparum, UniProt O97467)
Construct: endogenous in cells; host or cells: P. falciparum 3D7 parasites freed from human erythrocytes
Method: Uptake of [14C]-2-DOG into isolated (freed) P. falciparum parasites
Format: cell-based
Condition Notes: IC50 for glucose uptake in freed parasites, from dose-response curves of FIG. 4
I'd appreciate it if you marked entries label 1 when IC50 is lower than 20 µM and label 0 when it is not.

INSERT INTO assay_data (smiles_entry, class_assignment) VALUES
  ('COc1cc(C(=O)Nc2ccc(-c3nc4ccccc4[nH]3)cc2)cc(OC)c1OC', 'label 1');

Input CC(C)(C)C(=O)Nc1ccc(C(=O)Nc2cccc(-c3nc4ccccc4[nH]3)c2)cc1 ; condition: IC50 strictly below 20 µM. Does it hold?
label 1

Regarding Cc1ccc2nc(C)cc(Nc3cccc(C(F)(F)F)c3)c2c1 , kindly confirm whether its IC50 is beneath 20 µM.
label 0

Determine if CCN1CCN(Cc2ccc(NC(=O)c3cc4ccc5cccnc5c4[nH]3)cc2)CC1 shows IC50 strictly lower than 20 µM.
label 1

----------
Tested Target: PfHT (Plasmodium falciparum, UniProt O97467)
Construct: endogenous in cells; host or cells: P. falciparum 3D7 parasites freed from human erythrocytes
Method: Uptake of [14C]-2-DOG into isolated (freed) P. falciparum parasites
Assay type: cell-based
Condition Notes: IC50 for PfHT-mediated glucose uptake
Measured Parameter: IC50 (µM)
The answer is to be given in µM; state only the numeric part.

Look at this molecule and give its reported IC50. O=C1c2ccc3c4c(ccc(c24)C(=O)N1CCCCO)C(=O)N(CCCCO)C3=O [MMV009085]
2.6

----------
Tested Target: PfHT (Plasmodium falciparum)
Construct: endogenous in cells; host or cells: P. falciparum 3D7 parasites freed from human erythrocytes
Method: Heterologous FRET glucose sensor screening assay in PfHT-FLIP HEK293 cells
Format: cell-based
Condition Notes: HEK293; 10 μM; FRET ratio; vehicle 100%, 200 μM CB 0%
Measured Parameter: inhibition at 10 µM (%)
The response must be a number in % with no trailing unit.

Examples with their reported inhibition at 10 µM follow.
INSERT INTO results (smiles_entry, tested_target, unit_label, reported_value) VALUES
  ('CCN1CCN(Cc2ccc(NC(=O)c3cc4ccc5cccnc5c4[nH]3)cc2)CC1', 'PfHT (Plasmodium falciparum)', '%', 21),
  ('O=C1c2ccc3c4c(ccc(c24)C(=O)N1CCCCO)C(=O)N(CCCCO)C3=O', 'PfHT (Plasmodium falciparum)', '%', 87),
  ('COc1cc(C(=O)Nc2ccc(-c3nc4ccccc4[nH]3)cc2)cc(OC)c1OC', 'PfHT (Plasmodium falciparum)', '%', 64),
  ('CC(C)(C)C(=O)Nc1ccc(C(=O)Nc2cccc(-c3nc4ccccc4[nH]3)c2)cc1', 'PfHT (Plasmodium falciparum)', '%', 49);

Any idea what inhibition at 10 µM was measured for CN(C)c1ccc(C(O)(c2ccc(N(C)C)cc2)c2ccc(N(C)C)cc2)cc1 ?
31

Reported inhibition at 10 µM for Cc1ccc2nc(C)cc(Nc3cccc(C(F)(F)F)c3)c2c1 : what is it?
49

----------
Tested Target: PfHT (Plasmodium falciparum, UniProt O97467)
Construct: endogenous in cells; host or cells: P. falciparum 3D7 parasites freed from human erythrocytes
Sequence (O97467 1-504): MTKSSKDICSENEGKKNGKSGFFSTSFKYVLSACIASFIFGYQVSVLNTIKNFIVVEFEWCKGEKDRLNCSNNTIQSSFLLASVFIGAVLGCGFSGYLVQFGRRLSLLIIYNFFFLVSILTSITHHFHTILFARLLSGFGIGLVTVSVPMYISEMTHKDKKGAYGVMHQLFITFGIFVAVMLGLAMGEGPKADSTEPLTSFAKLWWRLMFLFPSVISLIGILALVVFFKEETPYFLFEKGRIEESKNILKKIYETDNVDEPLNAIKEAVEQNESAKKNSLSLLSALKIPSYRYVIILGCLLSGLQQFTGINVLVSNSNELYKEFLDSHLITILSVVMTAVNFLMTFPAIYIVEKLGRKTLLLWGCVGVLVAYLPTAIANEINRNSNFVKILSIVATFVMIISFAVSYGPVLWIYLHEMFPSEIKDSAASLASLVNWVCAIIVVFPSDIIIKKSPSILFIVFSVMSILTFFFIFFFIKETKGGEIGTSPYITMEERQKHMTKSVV
Method: Uptake of [14C]-2-DOG into isolated (freed) P. falciparum parasites
Type: cell-based
Condition Notes: IC50 PfHT in parasites, Table 1
Measured Parameter: pIC50
Convention used: pIC50 is expressed as -log10 of the molar concentration.

Sample records with pIC50:
INSERT INTO measurements (smiles_entry, tested_target, reported_value) VALUES
  ('COc1cc(C(=O)Nc2ccc(-c3nc4ccccc4[nH]3)cc2)cc(OC)c1OC', 'PfHT (Plasmodium falciparum, UniProt O97467)', 5.21),
  ('CCN1CCN(Cc2ccc(NC(=O)c3cc4ccc5cccnc5c4[nH]3)cc2)CC1', 'PfHT (Plasmodium falciparum, UniProt O97467)', 4.67),
  ('CC(C)(C)C(=O)Nc1ccc(C(=O)Nc2cccc(-c3nc4ccccc4[nH]3)c2)cc1', 'PfHT (Plasmodium falciparum, UniProt O97467)', 5.18),
  ('CN(C)c1ccc(C(O)(c2ccc(N(C)C)cc2)c2ccc(N(C)C)cc2)cc1', 'PfHT (Plasmodium falciparum, UniProt O97467)', 4.88),
  ('O=C1c2ccc3c4c(ccc(c24)C(=O)N1CCCCO)C(=O)N(CCCCO)C3=O', 'PfHT (Plasmodium falciparum, UniProt O97467)', 5.74);

Next up:
# pIC50 lookup, item Cc1ccc2nc(C)cc(Nc3cccc(C(F)(F)F)c3)c2c1
3.86
